Origin of the recorded values: ChEMBL document CHEMBL1157866

Molecular target: Tyrosinase (Agaricus bisporus) (UniProt O42713)
Sequence (whole entry): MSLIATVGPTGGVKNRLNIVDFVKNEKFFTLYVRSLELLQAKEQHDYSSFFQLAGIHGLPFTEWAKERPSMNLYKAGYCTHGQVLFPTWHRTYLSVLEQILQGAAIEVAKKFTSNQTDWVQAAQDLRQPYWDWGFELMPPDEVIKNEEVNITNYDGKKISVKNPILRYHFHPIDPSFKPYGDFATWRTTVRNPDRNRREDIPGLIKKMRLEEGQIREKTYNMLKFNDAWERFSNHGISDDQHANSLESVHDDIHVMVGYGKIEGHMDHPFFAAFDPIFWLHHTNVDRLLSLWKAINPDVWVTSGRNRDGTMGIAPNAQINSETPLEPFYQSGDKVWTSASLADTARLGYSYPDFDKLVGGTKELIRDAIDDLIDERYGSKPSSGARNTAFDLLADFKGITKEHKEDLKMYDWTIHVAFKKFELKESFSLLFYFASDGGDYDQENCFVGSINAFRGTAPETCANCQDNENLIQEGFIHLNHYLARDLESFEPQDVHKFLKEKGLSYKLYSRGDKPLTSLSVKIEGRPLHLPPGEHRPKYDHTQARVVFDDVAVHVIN
Test: Inhibition of monophenolase activity of mushroom tyrosinase using as L-tyrosine substrate by spectrophotometric analysis
test-readout: Activity

Would you please look over these solved cases?
* O=C(/C=C/c1ccc(O)cc1)c1ccc(NS(=O)(=O)c2ccc([N+](=O)[O-])cc2)cc1 | Dose-dependent effect
* Nc1ccc(S(=O)(=O)Nc2ccc(C(=O)/C=C/c3ccc(O)cc3)cc2)cc1 | Dose-dependent effect
* O=C(/C=C/c1ccc(O)cc1)c1ccc(NS(=O)(=O)c2ccccc2)cc1 | Dose-dependent effect
* O=C(/C=C/c1ccc(O)cc1)c1ccc(NS(=O)(=O)c2ccc(F)cc2)cc1 | Dose-dependent effect
* Cc1ccc(S(=O)(=O)Nc2ccc(C(=O)/C=C/c3ccc(O)cc3)cc2)cc1 | Dose-dependent effect

Pending compound:
Short answer for `O=C(/C=C/c1ccc(O)cc1)c1ccc(NS(=O)(=O)c2ccc(O)cc2)cc1` : Activity was Dose-dependent effect

====

Assay: Cytotoxicity against mouse B16 cells at 10 uM after 72 hrs by MTT assay
Format: cell-based
Conditions: read-out: Survival
test-readout: viability at 72 h, 10 µM (%)
Answers are plain numbers, in %.

Short answer for `Cc1ccc(S(=O)(=O)Nc2ccc(C(=O)/C=C/c3ccc(O)cc3)cc2)cc1` : viability at 72 h, 10 µM was 92

====

These records show pIC50 for Tyrosinase (Agaricus bisporus, UniProt O42713).
Give bare numbers, as −log10 of the molar value.

Would you please look over these solved cases?
- O=C(/C=C/c1ccc(O)cc1)c1ccc(NS(=O)(=O)c2ccc(O)cc2)cc1: 4.23
- O=C(/C=C/c1ccc(O)cc1)c1ccc(O)cc1 [4,4'-DIHYDROXYCHALCONE]: 5.32
- Nc1ccc(S(=O)(=O)Nc2ccc(C(=O)/C=C/c3ccc(O)cc3)cc2)cc1: 4.51
- Cc1ccc(S(=O)(=O)Nc2ccc(C(=O)/C=C/c3ccc(O)cc3)cc2)cc1: 4.63

Pending molecule:
Short answer for `O=C(/C=C/c1ccc(O)cc1)c1ccc(NS(=O)(=O)c2ccccc2)cc1` : pIC50 was 4.65

====

Target: Tyrosinase (Agaricus bisporus, UniProt O42713)
pKi: −log10 of the molar value.
Label no (0) if pKi falls below 5; label yes (1) in every other case.

- O=C(/C=C/c1ccc(O)cc1)c1ccc(NS(=O)(=O)c2ccc(F)cc2)cc1: no (0)

Hello, I need to know if O=C(/C=C/c1ccc(O)cc1)c1ccc(O)cc1 [4,4'-DIHYDROXYCHALCONE] has measured pKi not below 5. Thanks!
yes (1)

Hello, I need to know if `Nc1ccc(C(=O)/C=C/c2ccc(O)cc2)cc1` has measured pKi not below 5. Thanks!
yes (1)

====

Test: Cytotoxicity against mouse B16 cells at 30 uM after 72 hrs by MTT assay
Type: cell-based
Conditions: read-out: Survival
test-readout: viability at 72 h, 30 µM (%)
Answers are plain numbers, in %.

Short answer for `Cc1ccc(S(=O)(=O)Nc2ccc(C(=O)/C=C/c3ccc(O)cc3)cc2)cc1` : viability at 72 h, 30 µM was 78

====

Assay: Cytotoxicity against mouse B16 cells at 20 uM after 72 hrs by MTT assay
Format: cell-based
Conditions: read-out: Survival
test-readout: viability at 72 h, 20 µM

Short answer for `Cc1ccc(S(=O)(=O)Nc2ccc(C(=O)/C=C/c3ccc(O)cc3)cc2)cc1` : viability at 72 h, 20 µM was 84%
